Test: Acute toxicity test
Conditions: mouse, in vivo, po; P.O.; mice; Litchfield-Wilcoxon, dead animals within 7 days
Counter-ions that a name gives are not always drawn.
recorded-endpoint: LD50 at 168 h

Example cases with answers are listed next.
>  <molecule>
CN(Cc1cc(Br)cc(Br)c1N)C1CCCCC1.Cl [Reference Drug 2]

>  <result>
9000 mg/kg

$$$$
>  <molecule>
COc1cc(C(=O)Nc2c(Br)cc(Br)cc2CN(C)C2CCCCC2)ccc1OC(C)=O [Reference Drug 1, hydrochloride]

>  <result>
> 12000 mg/kg

$$$$

Now let's try a different one.
LD50 at 168 h reported for this molecule COc1cc(C(=O)Nc2c(Br)cc(Br)cc2CN(C)C2CCCCC2)ccc1O.Cl : > 12000 mg/kg
